Recorded growth values for a group of compounds are listed next.
- Tested on: RPMI-8226 leukemia
- Experimental protocol: NCI-60 one-dose screen, 48 h (100 = growth as untreated, 0 = no growth, -100 = all killed)
- Measurement conditions: 10 µM unless noted
- Experimental: Growth inhibition of the RPMI-8226 human tumor cell line is measured as a screen for anti-cancer activity. Cells are grown in 96 well plates and exposed to the test compound for 48 hours. Compounds are tested at a single concentration, which is 10^-5 M for most compounds. The reported endpoint is percent growth (GI% or GIPRCNT), where numbers from 0 - 100% represent growth inhibition, and numbers from -100% - 0 represent cell death. For example, a value of 40 represents 60% growth inhibition. […]
This is part of a sample that, as a whole, favours compounds with a hit. Of some 83,000 tested, about 20% had one in any assay.
I only need the number, in %, no unit after it.

Record excerpt, results attached:
INSERT INTO measurements (compound, value_kind, reported_value) VALUES
  ('CCCCN1C(=O)/C(=c2\sc3n(c2=O)C2C(NN=3)N(CC)C(=O)N2CC)c2cc(Cl)ccc21 (stereo unspecified)', 'growth', 70.2),
  ('COc1ccc(-n2c(SCC(=O)Nc3ccc(-c4nc5ccccc5[nH]4)cc3)nc3ccccc3c2=O)cc1', 'growth', -21.2),
  ('COc1cc(OC)c(C2SCC(=O)N2Nc2ncnc3ccccc23)cc1OC (stereo unspecified)', 'growth', 115),
  ('CN(C)CCCOc1c2ccccc2nc2c1oc1ccc(Cl)cc12', 'growth', -20.8),
  ('N#Cc1c(-c2ccc(F)cc2)nc2c(C#N)c(Nc3ccccc3)nn2c1N', 'growth', 104);

Please examine the following record next.
Consider the compound shown here: C=C1CC[C@H]2[C@@](C)(CCC3OC(c4ccc(OCc5cn(C6CC(OC(C)=O)C(OC(C)=O)C(COC(C)=O)O6)nn5)cc4)OC[C@]32C)[C@@H]1/C=C/C1=CCOC1=O (stereo partly specified) What is its recorded growth?
41.2

----------
- Test system: 786-0 renal
- Experimental protocol: NCI-60 one-dose screen, 48 h (100 = growth as untreated, 0 = no growth, -100 = all killed)
- Measurement conditions: 10 µM unless noted
The panel holds about 83,000 compounds, 20% with a hit somewhere; the sample as a whole holds those more often.
The entries below come with measured growth values attached.
A number alone suffices; assume %.

Completed entries (count: 2):
INSERT INTO assay_data (record_smiles, reported_value) VALUES
  ('CS(=O)(=O)c1ccc(-n2cc(/C=C/C(=O)c3ccc(NC(=O)CO[N+](=O)[O-])cc3)c(-c3ccc(Cl)cc3)n2)cc1', 67.6),
  ('C/C(=C(/c1ccc(Cl)cc1)c1ccc(OCCN)cc1)c1ccc(C)cc1', 102);

Reported growth, molecule COc1ccc(/C=C2\SC(=Nc3cc(C)on3)NC2=O)cc1 : ____
102

----------
- Test system: SK-MEL-2 melanoma
- Experimental protocol: NCI-60 one-dose screen, 48 h (100 = growth as untreated, 0 = no growth, -100 = all killed)
- Measurement conditions: 10 µM unless noted
- Procedure: Growth inhibition of the SK-MEL-2 human tumor cell line is measured as a screen for anti-cancer activity. Cells are grown in 96 well plates and exposed to the test compound for 48 hours. Compounds are tested at a single concentration, which is 10^-5 M for most compounds. The reported endpoint is percent growth (GI% or GIPRCNT), where numbers from 0 - 100% represent growth inhibition, and numbers from -100% - 0 represent cell death. For example, a value of 40 represents 60% growth inhibition. […]
Compounds without any hit were thinned out: in the full panel of roughly 83,000, 20% have a hit.
Value kind: growth (%)
Number in %, nothing else.

// known answers, use as guide
INSERT INTO measurements (molecule, reported_value) VALUES
  ('Cc1[nH]nc2ncc(C#Cc3cncc(C(=O)Nc4ccc(CN5CCN(C)CC5)c(C(F)(F)F)c4)c3)cc12', -44.6),
  ('CN1C(=O)N(c2ccccc2)C2N=C(N/N=C/c3ccccc3)SC21 (stereo not given)', -3.76),
  ('COc1ccc(Cc2nn(CC(=O)N/N=C/c3ccc(Cl)cc3)c(=O)c3c(C)noc23)cc1', 90.8),
  ('CO/N=C1\CCc2c(sc(NC(=O)c3cccc(C(F)(F)F)c3)c2C(N)=O)C1', 63.9),
  ('CC(C)(C)Nc1nc2c(OCCc3ccccc3)cccn2c1-c1cccc(F)c1', -81.2),
  ('OC1CCN(CCCOc2c3ccccc3nc3c2oc2ccc(Cl)cc23)CC1', 14),
  ('Cc1cc(C(NC(=O)CCCCCNc2cccc3c2C(=O)N(C2CCC(=O)NC2=O)C3=O)c2cccnc2)c(O)c2ncccc12 (stereo not given)', -16.9),
  ('Fc1ccc(-c2cc3nc(C(Cl)Cl)nc(-c4ccc(Cl)cc4)n3n2)cc1', 89.4),
  ('Cn1c(SCC(=O)Nc2ccc(-c3nc4ccc([N+](=O)[O-])cc4[nH]3)cc2)nc2ccccc2c1=O', 90.7);

Please provide the recorded growth for CC(C)(C)Nc1nc2c(OCCc3ccccc3)cccn2c1-c1ccc(Cl)cc1 , tested on SK-MEL-2 melanoma.
-33.9
